Taken from ChEMBL document CHEMBL2086239.

# Test system: T47D
# TEST_DETAILS: Growth inhibition of human T47D cells after 48 hrs by SRB assay
# Type: functional
Please use Criterion met for GI50 under 4 µM and Criterion not met for everything else, ties included.

Please review the entries below; each comes with its answer.
SMILES_STRING	MEASUREMENT_TARGET	LABEL_VALUE
COc1ccc(/C=C\c2cc(OC)c(OC)c(OC)c2)cc1O	T47D	Criterion not met
COc1ccc(/C=C\c2cc(OC)c(OC)c(OC)c2)cc1OCC(=O)Nc1nc2ccccc2s1	T47D	Criterion met
COc1ccc(/C=C\c2cc(OC)c(OC)c(OC)c2)cc1OCC(=O)Nc1ccc2nc(C)sc2c1	T47D	Criterion not met
COc1ccc(/C=C\c2cc(OC)c(OC)c(OC)c2)cc1OCC(=O)Nc1nc2ccc(F)cc2s1	T47D	Criterion met

Please state whether GI50 is below 4 µM for COc1ccc(/C=C\c2cc(OC)c(OC)c(OC)c2)cc1OCC(=O)Nc1nc2ccc(C(F)(F)F)cc2s1
Criterion not met
